# System: pBR322 plasmid DNA
# protocol.text: Agarose gel electrophoresis, DNA cleavage
# Assay type: biochemical
# conditions: compound 50 (mM in the source), no additive
Reported %Nicked is given for each of the following compounds.

{"compound": "Cc1ncc([N+](=O)[O-])n1CC(O)CCl.Cc1ncc([N+](=O)[O-])n1CC(O)CCl.[Cl][Zn][Cl] (centres unmarked) [[Zn(onz)2Cl2]]", "unit.name": "%", "%Nicked": 3.90}
{"compound": "Cc1ncc([N+](=O)[O-])n1CC(O)CCl.Cc1ncc([N+](=O)[O-])n1CC(O)CCl.[Cl-].[Cl-].[Cu+2] (centres unmarked) [[Cu(onz)2Cl2]]", "unit.name": "%", "%Nicked": 9.70}
{"compound": "Cc1ncc([N+](=O)[O-])n1CCCl.Cc1ncc([N+](=O)[O-])n1CCCl.[Cl][Zn][Cl] [[Zn(cenz)2Cl2]]", "unit.name": "%", "%Nicked": 2.20}
{"compound": "Cc1n(CC(O)CCl)c([N+](=O)[O-])c[n+]1[Zn-2]([Br])([Br])[n+]1cc([N+](=O)[O-])n(CC(O)CCl)c1C (centres unmarked) [[Zn(onz)2Br2]]", "unit.name": "%", "%Nicked": 0.40}
{"compound": "Cc1ncc([N+](=O)[O-])n1CCCl.Cc1ncc([N+](=O)[O-])n1CCCl.[Br][Cu][Br] [[Cu(cenz)2Br2]]", "unit.name": "%", "%Nicked": 7.50}
{"compound": "Cc1n(CC(O)CCl)c([N+](=O)[O-])c[n+]1[Cu-2]([Br])([Br])[n+]1cc([N+](=O)[O-])n(CC(O)CCl)c1C (centres unmarked) [[Cu(onz)2Br2]]", "unit.name": "%", "%Nicked": 23.00}
{"compound": "Cc1ncc([N+](=O)[O-])n1CCCl.Cc1ncc([N+](=O)[O-])n1CCCl.[Br][Zn][Br] [[Zn(cenz)2Br2]]", "unit.name": "%", "%Nicked": 2.20}
{"compound": "Cc1ncc([N+](=O)[O-])n1CC(O)CCl (centres unmarked) [onz, reference compound]", "unit.name": "%", "%Nicked": 7.60}

----------
Reported %Damage is given for each of the following molecules.
# Test system: pBR322 plasmid DNA
# protocol.text: Agarose gel electrophoresis, DNA cleavage
# Format: biochemical
# conditions: compound 10 (mM in the source), no additive

{"molecule": "Cc1ncc([N+](=O)[O-])n1CCCl.Cc1ncc([N+](=O)[O-])n1CCCl.[Br][Zn][Br] [[Zn(cenz)2Br2]]", "%Damage / %": 6.20}
{"molecule": "Cc1n(CC(O)CCl)c([N+](=O)[O-])c[n+]1[Cu-2]([Br])([Br])[n+]1cc([N+](=O)[O-])n(CC(O)CCl)c1C (centres unmarked) [[Cu(onz)2Br2]]", "%Damage / %": 7.80}
{"molecule": "Cc1ncc([N+](=O)[O-])n1CC(O)CCl.Cc1ncc([N+](=O)[O-])n1CC(O)CCl.[Cl][Zn][Cl] (centres unmarked) [[Zn(onz)2Cl2]]", "%Damage / %": 14.6}
{"molecule": "Cc1ncc([N+](=O)[O-])n1CC(O)CCl.Cc1ncc([N+](=O)[O-])n1CC(O)CCl.[Cl-].[Cl-].[Cu+2] (centres unmarked) [[Cu(onz)2Cl2]]", "%Damage / %": 36.40}
{"molecule": "Cc1ncc([N+](=O)[O-])n1CCCl.Cc1ncc([N+](=O)[O-])n1CCCl.[Br][Cu][Br] [[Cu(cenz)2Br2]]", "%Damage / %": 37.80}
{"molecule": "Cc1n(CC(O)CCl)c([N+](=O)[O-])c[n+]1[Zn-2]([Br])([Br])[n+]1cc([N+](=O)[O-])n(CC(O)CCl)c1C (centres unmarked) [[Zn(onz)2Br2]]", "%Damage / %": 3.5}
{"molecule": "Cc1ncc([N+](=O)[O-])n1CCCl.Cc1ncc([N+](=O)[O-])n1CCCl.[Cl][Cu][Cl] [[Cu(cenz)2Cl2]]", "%Damage / %": 12.00}
{"molecule": "Cc1ncc([N+](=O)[O-])n1CCCl.Cc1ncc([N+](=O)[O-])n1CCCl.[Cl][Zn][Cl] [[Zn(cenz)2Cl2]]", "%Damage / %": 20.80}
